Where do the numbers come from? From PubChem BioAssay (NCI).

System: NCI-H23 lung
TEST_SUMMARY: NCI-60 one-dose screen, 48 h
CONDITION_SET: 10 µM unless noted
This is part of a sample that, as a whole, favours compounds with a hit. Of some 83,000 tested, about 20% had one in any assay. Active and inactive are the calls of the source. How the source made its calls: active means growth percent below 10; inactive means the rest.
A correct response names exactly one class from active, inactive

As a guide, the following entries are already answered.
{"GIVEN_SMILES": "CN1CCN(CCCCCC(=O)Nc2nc(-c3cccc(NS(=O)(=O)c4cccc5c(N(C)C)cccc45)c3)cs2)CC1", "TESTED_ON": "NCI-H23 lung", "LABEL_CLASS": "inactive"}
{"GIVEN_SMILES": "C#Cc1nc(C(=O)NCCCCCCC(=O)NO)cs1", "TESTED_ON": "NCI-H23 lung", "LABEL_CLASS": "active"}
{"GIVEN_SMILES": "CCOC(=O)c1c(NCC(=O)Nc2cccc([N+](=O)[O-])c2)sc(C(C)=O)c1C", "TESTED_ON": "NCI-H23 lung", "LABEL_CLASS": "active"}

[ask] So what was the verdict on "CC(=O)Nc1nc(C)c(-c2csc(Nc3ccccc3)n2)s1" in this test?
[reply] inactive

[ask] So what was the verdict on "O=C(CSc1nc2ccccc2c(=O)n1-c1ccccc1)N/N=C/c1ccc(Oc2ccc(Br)cc2)cc1" in this test?
[reply] inactive

[ask] So what was the verdict on "Cc1ccc(S(=O)(=O)NCCCNc2nccc(-c3[nH]c(-c4ccccc4)nc3-c3ccc(F)c(O)c3)n2)cc1" in this test?
[reply] inactive

[ask] So what was the verdict on "Cc1cc(=O)oc2cc(OCCCOc3ccc(/C=C/C(=O)Nc4ccc(Br)cc4)cc3)ccc12" in this test?
[reply] inactive

[ask] So what was the verdict on "Cc1ccc(NC(=O)Nc2nc3ccc([N+](=O)[O-])cc3s2)cc1" in this test?
[reply] active

[ask] So what was the verdict on "C=C1CCc2nc(SCC(=O)O)ccc2N1" in this test?
[reply] inactive

[ask] So what was the verdict on "CCCCOc1ccc(S(=O)(=O)N2CCN(c3nc(C)cc(N4CCOCC4)n3)CC2)cc1" in this test?
[reply] inactive

---

Tested on: HT29 colon
TEST_SUMMARY: NCI-60 one-dose screen, 48 h (100 = growth as untreated, 0 = no growth, -100 = all killed)
CONDITION_SET: 10 µM unless noted
About 83,000 compounds went through this panel and 20% of them were active in at least one assay; those are over-represented in the sample as a whole.
Kindly supply the reported growth values for the records listed here.
Answers are plain numbers, in %.

Please state, for each entry, its recorded growth.
1. Cc1ccc(S(=O)(=O)c2nc(-c3ccc(F)cc3)oc2S(C)(=O)=O)cc1
2. O=[N+]([O-])c1ccc(NC(=S)NNC(=S)Nc2ccc(F)cc2)cc1
3. CN(C)CCCOc1ccc(C(=C(c2ccccc2)C2CCCC2)c2ccc(OCCCN(C)C)cc2)cc1
4. C#CCOc1cccc(/C(N)=N/C(N)=N/c2nc3ccccc3s2)c1

[reply]
1. 55.1
2. 98
3. -86.3
4. 108

Please state, for each entry, its recorded growth.
1. O=C(NNc1nc2cc(F)cc(F)c2n2cccc12)c1cccnn1
2. NS(=O)(=O)c1cccc(Nc2nc(SCC(=O)c3ccc(Cl)cc3)nc3c2CCC3)c1
3. C#Cc1nc(/C=C\CCCCCCC(=O)NO)cs1
4. O=C1/C(=C/c2cc(F)cc(F)c2)Cc2cc3c(cc21)OCO3
5. CC(C)(C)Nc1nc2c(OCCc3ccccc3)cccn2c1-c1ccc([N+](=O)[O-])cc1
6. Nc1ccc(Nc2ncnc3sc4c(c23)CCN(Cc2ccccc2)C4)cc1

[reply]
1. 30.2
2. 109
3. 55
4. 22.1
5. 52.3
6. 101
